Entry source: paper PMC10582333

Target: glucocorticoid receptor (Homo sapiens, UniProt P04150)
Sequence (P04150 whole entry): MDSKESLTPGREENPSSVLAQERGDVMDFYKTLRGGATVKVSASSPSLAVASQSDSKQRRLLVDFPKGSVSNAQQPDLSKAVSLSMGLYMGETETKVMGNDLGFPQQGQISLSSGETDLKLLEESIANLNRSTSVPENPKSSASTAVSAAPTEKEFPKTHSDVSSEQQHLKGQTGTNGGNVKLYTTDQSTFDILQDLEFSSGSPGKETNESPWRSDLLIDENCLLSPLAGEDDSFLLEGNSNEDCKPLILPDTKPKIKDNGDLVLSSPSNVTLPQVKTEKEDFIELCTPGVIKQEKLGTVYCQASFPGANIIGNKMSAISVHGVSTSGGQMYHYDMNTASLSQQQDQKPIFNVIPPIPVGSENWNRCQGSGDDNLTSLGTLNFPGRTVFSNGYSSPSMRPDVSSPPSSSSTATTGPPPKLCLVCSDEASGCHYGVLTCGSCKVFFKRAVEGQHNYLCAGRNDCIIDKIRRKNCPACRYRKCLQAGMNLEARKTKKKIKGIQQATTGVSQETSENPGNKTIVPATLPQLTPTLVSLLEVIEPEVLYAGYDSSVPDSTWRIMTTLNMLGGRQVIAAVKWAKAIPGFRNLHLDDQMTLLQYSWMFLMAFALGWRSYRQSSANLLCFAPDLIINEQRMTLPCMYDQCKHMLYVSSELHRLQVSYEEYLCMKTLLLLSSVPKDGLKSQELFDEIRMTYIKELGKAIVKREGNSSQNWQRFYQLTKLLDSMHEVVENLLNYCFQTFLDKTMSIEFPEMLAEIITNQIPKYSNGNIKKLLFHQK
Test: AR (ARE) luciferase reporter assay, 22RV1 cells with DEX (GR-driven)
Type: cell-based
Design: AR luciferase reporter assay using 22RV1 cells that express GR; endogenous in cells; host or cells: 22RV1
experimentalReadout: IC50 (nM)
Answers are plain numbers, in nM.

Can you look up IC50 on glucocorticoid receptor (Homo sapiens, UniProt P04150) for COc1ccc(C[C@H]2C(=O)N[C@@H](C)C(=O)N(C)[C@H]3Cc4ccc(cc4)Oc4cc(ccc4OC)C[C@@H](C(=O)N[C@H](C)C(=O)N[C@@H](C)C(=O)N2C)N(C)C3=O)cc1 ?
13.5
